The reported measurements were obtained from patent US20240228660A1.

- study-system: T1, human native VWF (human, UniProt P04275 764-2813)
- T1 construct: Multimeric glycoprotein; also called native VWF protein; native VWF (305 kDa)
- test: SPR, Biacore 8K, antibody captured on Protein A, native VWF as analyte (4.4-50 nM), single-cycle kinetics, 1:1 fit; replicate 1
metric-name: Kd (nM)
Number in nM, nothing else.

(Q) Which Kd value is on record for 3-H9 (antibody, human IgG1, V domains shown, Rabbit-derived variable domains expressed as human IgG1; also called clone 3-H9; antibody 3-H9) VH: QSLEESGGRLVTPGTPLTLTCSVSGFSLSNYDMSWVRQAPGKGLEWIGSIHAIGITYYANWAEGRFTISKTSTTVDLKMTSLTTEDTATYFCARGLVDLNMWGPGTLVTVSS VL: AIKMTQTPSSVSVAVGGTVTINCQSSQSVYSNNLLSWYQQKPGQPPKLLIYDASTLESGVPSRFKGSGSGTQFTLTISGVQCEDAATYYCQGSYYSSGWYNTFGGGTEVVVE ?
(A) 0.0487

(Q) Which Kd value is on record for 1-D5 (antibody, human IgG1, V domains shown, Rabbit-derived variable domains expressed as human IgG1; also called clone 1-D5; antibody 1-D5) VH: QQQLVESGGRLVTPGTPLTLTCAVSGFSLNNYIMGWVRQAPGKGLEYIGIISTGGSTYYASWAKGRFTISRTSTTMDLKMTSLTTEDTATYFCARGGSSAGAGFNIWGPGTLVTVSS VL: DIVMTQTPSSVSAAVGDTVTIQCQASQSINSGLAWYQQKPGQPPKRLIYKASTLASGVPSRFRGSGSGTDFTLTISDLECADAATYYCQSYHYISANGATFGGGTEVVVE ?
(A) 0.025

(Q) Which Kd value is on record for 1-A2 (antibody, human IgG1, V domains shown, Rabbit-derived variable domains cloned into a human IgG1 expression vector and expressed as monoclonal antibody; also called clone 1-A2; antibody 1-A2) VH: QSVEESGGRLVPPGTPLTLTCTVSGIDLTSNAMNWVRQAPGKGLEWIGGIYGHDTSYYAAWAKGRFTISRTSTTVDLKMTRPTTDDTATYFCARGFIYFDIWGTGTLVTISS VL: AIEMTQTPPSLSASVGETVRIRCLASEDIYSGISWYQQKPGKPPTLLIYGASNLESGVPPRFSGSGSGTDYTLTIGGVQAEDAATYYCLGGHSHSTTDLTFGAGTKVEIK ?
(A) 0.164

(Q) Which Kd value is on record for 1-G5 (antibody, human IgG1, V domains shown, Rabbit-derived variable domains expressed as human IgG1; also called clone 1-G5) VH: QSLEESGGRLVTPGTPLTLTCSVSGFSLSSYDMTWVRQAPGKGLEWIGSIHATGITFYANWAKGRFTTSKTSTTVDLKMTSLTTEDTATYFCARGLVDLNMWGPGTLVTVSS VL: DPVMTQTASSVSAAVGGTVTINCQASQSVYNNNYLSWYQQKPGQPPKLLIYDASTLASGVPSRFSGNGSGTQFTLTISGVQCDDAATYYCQGSYYSGGWDTAFGGGTKVVVK ?
(A) 0.0549
